// OD450 lookup, one value per entry
biological target: BSA (UniProt P02769); assay: scFv ELISA
Sequence (P02769 25-607 limits assumed): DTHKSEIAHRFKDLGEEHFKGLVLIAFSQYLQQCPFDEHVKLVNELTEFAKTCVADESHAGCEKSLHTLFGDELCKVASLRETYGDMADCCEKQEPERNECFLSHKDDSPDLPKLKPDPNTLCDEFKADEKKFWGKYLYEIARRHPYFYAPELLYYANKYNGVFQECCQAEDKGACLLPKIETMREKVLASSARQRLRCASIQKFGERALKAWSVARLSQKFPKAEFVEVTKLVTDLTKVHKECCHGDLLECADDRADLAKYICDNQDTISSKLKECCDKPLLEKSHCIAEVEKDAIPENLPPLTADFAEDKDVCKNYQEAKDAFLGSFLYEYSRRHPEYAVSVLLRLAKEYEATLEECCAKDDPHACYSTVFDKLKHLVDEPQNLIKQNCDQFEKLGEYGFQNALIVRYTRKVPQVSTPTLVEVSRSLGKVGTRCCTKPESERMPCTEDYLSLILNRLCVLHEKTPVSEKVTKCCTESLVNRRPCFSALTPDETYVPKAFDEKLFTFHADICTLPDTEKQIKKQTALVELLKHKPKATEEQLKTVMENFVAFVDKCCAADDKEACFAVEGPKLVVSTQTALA

# BINDER, OD450, OD450
data = [
    ("PcOxP_DB03_E09 (scFv, V domains shown, scFv in periplasmic extract) VH: EVQLLESGGGLVQPGGSLRLSCAASGFTASDFYMEWVRQAPGKGLEWVAASRNKANDQTTEYADSVKGRFTISRDNSKNTLYLQMNSLRAEDTAVYYCARDYYGSSYWYFDSWGQGTLVTVSS VL: DIQMTQSPSSLSASVGDRVTITCTASESLYSSKHKVHYLAWYQQKPGKAPKLLIYGASNRQSGVPSRFSGSGSGTDFTLTISSLQPEDFATYYCAQFYSYPLTFGGGTKVEIK", 0.08),
    ("PcOxP_DB03_D02 (scFv, V domains shown, scFv in periplasmic extract) VH: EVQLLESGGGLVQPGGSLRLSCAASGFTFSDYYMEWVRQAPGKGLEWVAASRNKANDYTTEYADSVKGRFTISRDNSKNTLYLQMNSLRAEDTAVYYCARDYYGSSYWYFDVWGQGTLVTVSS VL: DIVMTQSPDSLAVSLGERATINCTASESLYSSKHKVHYLAWYQQKPGQPPKLLIYGATNRYIGVPDRFSGSGSGTDFTLTISSLQAEDVAVYYCAEFYSYPLTFGGGTKVEIK", 0.09),
]
